protocol_text: Selectivity index, ratio of CC50 for cytotoxicity against human HepG2 cells to MIC90 for antitubercular activity against Mycobacterium tuberculosis
Type: toxicity, cell-based
test_parameters: read-out: Selectivity Index
Listed below: selectivity ratio values for each entry.
In your answer, state the number alone without any accompanying words.

Past entries and their recorded results:
CC(C)/N=c1\cc2n(-c3ccc(Cl)cc3)c3ccccc3nc-2cc1Nc1ccc(Cl)cc1 | 223
O=C(CSc1nc2ccccc2c(=O)[nH]1)NC1CCCCC1 | 391
O=C(CSc1nc2c(Br)cc(F)cc2s1)NC1CCCCC1 | 5.58
CC(C)c1ccc2nc(SCC(=O)NC3CCCCC3)sc2c1 | 26.5

QUERY: Bench note: what selectivity ratio did Cc1cc(C)c2nc(SCC(=O)NC3CCCCC3)sc2c1 show?
RESULT: 15.4

* * *

Recorded IC50 by entry
System: Mycobacterium tuberculosis
protocol_text: Antitubercular activity against Mycobacterium tuberculosis H37Ra assessed as inhibition of intracellular ATP synthesis incubated for 24 hrs by BacTiter-Glo microbial cell viability assay
Assay type: functional, organism-based
Reply numerically in µg/mL, unit not repeated.

O=C(CSc1nc2ccc(F)cc2s1)NC1CCCCC1 | 36.5
O=C(CSc1nc2ccccc2c(=O)[nH]1)NC1CCCCC1 | 8.55
O=C(CSc1nc2c(Br)cc(OC(F)(F)F)cc2s1)NC1CCCCC1 | 36.6
O=C(CSc1nc2c(ccc3ccccc32)s1)NC1CCCCC1 | 36.6

QUERY: IC50 lookup needed for Cc1cc(C)c2nc(SCC(=O)NC3CCCCC3)sc2c1 , thanks.
RESULT: 16.3

QUERY: Can you check O=C(CSc1nc2ccc(Cl)cc2s1)NC1CCCCC1 next?
RESULT: 48.6

QUERY: Please do the same for O=C(CSc1nc2ccc(Br)cc2s1)NC1CCCCC1 as well.
RESULT: 34.4

QUERY: Repeat with O=C(CSc1nc2ccc(C(F)(F)F)cc2s1)NC1CCCCC1
RESULT: 30.9

QUERY: Also O=C(CSc1nc2ccccc2s1)NC1CCCCC1 ?
RESULT: 26.6

QUERY: Proceed to CC(C)c1ccc2nc(SCC(=O)NC3CCCCC3)sc2c1
RESULT: 9.35

QUERY: Entry O=C(CSc1nc2c(Br)cc(C(F)(F)F)cc2s1)NC1CCCCC1 please
RESULT: 25.7

QUERY: Also need O=C(CSc1nc2c(Br)cc(F)cc2s1)NC1CCCCC1 , thanks.
RESULT: 18.7

QUERY: Please do the same for O=C(CSc1nc2ccc([N+](=O)[O-])cc2s1)NC1CCCCC1 as well.
RESULT: 36.3

QUERY: Do the same for O=C(CSc1nc2ccc(OC(F)(F)F)cc2s1)NC1CCCCC1 please
RESULT: 23.4

QUERY: Also, Cc1ccc2nc(SCC(=O)NC3CCCCC3)sc2c1 please.
RESULT: 14.1

* * *

protocol_text: Cytotoxicity against human HepG2 cells assessed as reduction in cell viability by MTT assay
Type: toxicity, cell-based
measured_parameter: log10(CC50) (log10 of the value in µg/mL)
Log scale reminder: CC50 in µg/mL, then log10 taken.

Consider the reported log10(CC50) for these compounds:
CC(C)/N=c1\cc2n(-c3ccc(Cl)cc3)c3ccccc3nc-2cc1Nc1ccc(Cl)cc1 | 1.69
CC(C)c1ccc2nc(SCC(=O)NC3CCCCC3)sc2c1 | 2.63
Cc1cc(C)c2nc(SCC(=O)NC3CCCCC3)sc2c1 | 2.39
O=C(CSc1nc2ccccc2c(=O)[nH]1)NC1CCCCC1 | 1.69
CC/C(=C(\c1ccccc1)c1ccc(OCCN(C)C)cc1)c1ccccc1 | 0.79

Next item in the queue.
QUERY: I have this compound here, O=C(CSc1nc2c(Br)cc(F)cc2s1)NC1CCCCC1 , and I need its recorded log10(CC50).
RESULT: 1.95
